Target: T1, Recombinant human TIGIT (human, UniProt Q495A1 22-141, limits assumed)
T1 construct: also called T cell immunoreceptor with Ig and ITIM domains
T1 sequence: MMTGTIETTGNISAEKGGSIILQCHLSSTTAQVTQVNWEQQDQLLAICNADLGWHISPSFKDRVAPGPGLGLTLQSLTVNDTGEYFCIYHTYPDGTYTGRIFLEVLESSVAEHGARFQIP
Test: ELISA, recombinant human TIGIT coated on plate, serially diluted antibody

binder	EC50 (nM)
SCT-Ga333 (antibody, V domains shown, Murine variable domains) VH: QVQLQQSGAELVRPGTSVKVSCKASGYAFTNYLIEWVKQRPGQGLEWIGVINPGSGGNNYNEKFKGKATLTADKSSSTAYMQLSSLTSDDSAVYFCARRGDKYGSAWFAYWGQGTLVTVSA VL: DIVMTQSHKFMSTSVGDRVSITCKASQDVSTAVAWYQQKPGQSPKLLIYSASYRYTGVPDRFTGSGSGTDFTFTISSVQAEDLAVYYCQQHYSSPRTFGGGTKLEIK	1.08
